Target desc: Chromo domain-containing protein 1 (Saccharomyces cerevisiae (strain ATCC 204508 / S288c) (Baker's yeast))
Procedure text: ScCHD-1 Enzyme Inhibition Assay; note: in the data most compounds retested in dose-response had high values
Assay type: functional
Design: scale not given: direction of the effect not stated beside the values
Test conditions: 30 µM
Readout: Percent Effect (%)
Answer with a number only, understood to be in %.

Worked examples follow.
{"columns": ["Compound", "Measure unit", "Percent Effect"],
 "data": [
  ["c1ccc(-c2nc(CN3CCCC(Cn4cncn4)C3)co2)cc1 (stereo unspecified)", "%", -13.6],
  ["CN(C)CC1(O)CCN(S(=O)(=O)c2ccc(F)cc2)C1 (stereo unspecified)", "%", 65.3],
  ["O=S(=O)(c1cccnc1)N1CCN(CCn2ccnc2)CC1", "%", -5.5],
  ["O=C(c1cccn1Cc1cccs1)N1CCN(C2CC2)CC1", "%", -8.6],
  ["COc1ccccc1CNC(=O)N1CCCC(NS(C)(=O)=O)C1 (stereo unspecified)", "%", -22.9]
]}

Documented Percent Effect of CN1CC(=O)N(c2cccc(F)c2)CC12CCN(S(C)(=O)=O)C2 (stereo unspecified) : -1.22

Documented Percent Effect of CC(C)N1CCC(Cc2cncc(-c3ccccc3C(=O)O)n2)CC1 : -3.75

Documented Percent Effect of COc1cccc(-c2nc(C)c(C(=O)NC(CO)CCSC)s2)c1 (stereo unspecified) : -7.42

Documented Percent Effect of Cc1cc(C)n(CC(C)CNC(=O)[C@@H](C)NC(=O)OC(C)(C)C)n1 (stereo partly specified) : -2.31

Documented Percent Effect of O=C(c1csc(-c2cccs2)n1)N1CCCC1Cn1cccn1 (stereo unspecified) : 0.105

Documented Percent Effect of CC(C)c1nc(C2CCCN2C(=O)c2cnc[nH]2)no1 (stereo unspecified) : 4.79

----------
Target desc: Protein translocase subunit SecA (Escherichia coli (strain K12)) (UniProt P10408)
Sequence (P10408 whole entry): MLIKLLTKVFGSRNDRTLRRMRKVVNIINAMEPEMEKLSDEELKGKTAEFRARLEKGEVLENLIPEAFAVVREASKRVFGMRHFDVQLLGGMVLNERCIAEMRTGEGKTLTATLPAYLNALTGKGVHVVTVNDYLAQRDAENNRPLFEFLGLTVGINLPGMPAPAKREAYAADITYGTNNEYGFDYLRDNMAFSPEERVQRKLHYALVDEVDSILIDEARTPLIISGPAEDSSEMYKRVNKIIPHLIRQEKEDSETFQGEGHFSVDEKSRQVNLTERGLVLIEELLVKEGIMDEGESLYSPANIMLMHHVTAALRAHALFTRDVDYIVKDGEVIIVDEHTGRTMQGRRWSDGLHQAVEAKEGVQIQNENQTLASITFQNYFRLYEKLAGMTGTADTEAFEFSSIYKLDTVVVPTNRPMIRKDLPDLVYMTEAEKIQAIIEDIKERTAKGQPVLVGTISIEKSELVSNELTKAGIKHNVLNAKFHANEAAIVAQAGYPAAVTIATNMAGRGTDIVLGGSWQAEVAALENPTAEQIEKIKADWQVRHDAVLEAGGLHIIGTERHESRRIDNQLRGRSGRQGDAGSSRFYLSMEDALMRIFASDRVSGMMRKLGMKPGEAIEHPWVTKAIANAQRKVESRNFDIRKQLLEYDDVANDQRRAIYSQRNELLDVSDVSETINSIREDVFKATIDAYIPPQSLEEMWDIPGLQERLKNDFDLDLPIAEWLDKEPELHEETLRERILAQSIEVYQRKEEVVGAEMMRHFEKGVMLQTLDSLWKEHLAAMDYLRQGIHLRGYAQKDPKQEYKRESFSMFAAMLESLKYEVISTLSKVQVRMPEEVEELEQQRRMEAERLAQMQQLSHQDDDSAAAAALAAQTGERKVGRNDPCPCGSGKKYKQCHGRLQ
Procedure text: Assay to Identify E. coli SecA ATPase Inhibitors
Type: functional
Set-up: scale not given: direction of the effect not stated beside the values
Test conditions: 30 µM
Potency and affinity values are given separately.
Each entry below carries its reported Percent Effect.
Answer with a number only, understood to be in %.

{"columns": ["Molecule", "Target desc", "Percent Effect [%]"],
 "data": [
  ["O=C(CN1CC(n2cccn2)C1)NCCc1c[nH]c2ccccc12", "Protein translocase subunit SecA (Escherichia coli (strain K12)) (UniProt P10408)", -3.91],
  ["COc1ccc(C(=O)N(C)Cc2cccc(C#N)c2)c(OC)c1OC", "Protein translocase subunit SecA (Escherichia coli (strain K12)) (UniProt P10408)", -2.52],
  ["CCN1CCC(CNC(=O)C2(c3cccc(C)c3)CC2)C1 (stereo unspecified)", "Protein translocase subunit SecA (Escherichia coli (strain K12)) (UniProt P10408)", -2.88],
  ["Cc1cccc(C(=O)N2C[C@@H]3OCCN(c4ncccn4)[C@@H]3C2)n1", "Protein translocase subunit SecA (Escherichia coli (strain K12)) (UniProt P10408)", -4.13]
]}

Field Percent Effect (Protein translocase subunit SecA (Escherichia coli (strain K12)) (UniProt P10408)), entry COc1ccc(C(CNC(=O)Nc2cn[nH]c2)N2CCOCC2)cc1 (stereo unspecified) : -3.98

Field Percent Effect (Protein translocase subunit SecA (Escherichia coli (strain K12)) (UniProt P10408)), entry CNC(=O)[C@@]12CCC3(CCN(C(C)=O)CC3)[C@@H]1CN(S(C)(=O)=O)C2 : -4.16

Field Percent Effect (Protein translocase subunit SecA (Escherichia coli (strain K12)) (UniProt P10408)), entry Cn1cc(N2CC3(CCN(S(=O)(=O)C4CC4)C3)CC2=O)cn1 (stereo unspecified) : -2.73

Field Percent Effect (Protein translocase subunit SecA (Escherichia coli (strain K12)) (UniProt P10408)), entry Cc1nc2cc(C3CCN(Cc4cccc(F)c4F)C3)nn2c(O)c1C (stereo unspecified) : -0.873

Field Percent Effect (Protein translocase subunit SecA (Escherichia coli (strain K12)) (UniProt P10408)), entry CCOc1ncccc1NC(=O)c1sccc1C : -2.31

----------
Target desc: Tyrosyl-tRNA synthetase, putative (Trypanosoma cruzi (strain CL Brener)) (UniProt Q4DSP6)
Sequence (whole entry): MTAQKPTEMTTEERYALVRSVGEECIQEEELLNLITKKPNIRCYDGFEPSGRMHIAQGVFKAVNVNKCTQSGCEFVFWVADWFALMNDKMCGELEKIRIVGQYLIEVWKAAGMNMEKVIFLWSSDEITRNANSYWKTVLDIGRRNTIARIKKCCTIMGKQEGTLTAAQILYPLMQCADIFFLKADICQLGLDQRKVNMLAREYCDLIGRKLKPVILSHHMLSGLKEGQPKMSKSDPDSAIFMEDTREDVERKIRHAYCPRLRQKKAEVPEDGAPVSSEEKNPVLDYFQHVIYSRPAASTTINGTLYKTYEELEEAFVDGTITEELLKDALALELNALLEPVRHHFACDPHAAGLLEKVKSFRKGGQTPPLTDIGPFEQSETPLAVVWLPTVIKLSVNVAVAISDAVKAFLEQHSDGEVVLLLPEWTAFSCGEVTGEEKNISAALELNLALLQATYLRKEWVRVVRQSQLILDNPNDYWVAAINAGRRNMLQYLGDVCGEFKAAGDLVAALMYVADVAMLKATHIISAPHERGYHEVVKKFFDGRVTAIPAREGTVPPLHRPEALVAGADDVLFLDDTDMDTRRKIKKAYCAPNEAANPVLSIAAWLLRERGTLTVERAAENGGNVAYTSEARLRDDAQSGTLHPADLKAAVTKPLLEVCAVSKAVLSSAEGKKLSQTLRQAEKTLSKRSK
Procedure text: Trypanosoma cruzi tyrosyl tRNA synthetase (TcYRS) _High Tyrosine SOP; note: in the data most compounds retested in dose-response had high values
Format: functional
Parameters: scale not given: direction of the effect not stated beside the values
Test conditions: 30 µM
Each entry below carries its reported Percent Effect.
Answer with a number only, understood to be in %.

Worked examples follow.
{"columns": ["Molecule", "Readout", "Observed"],
 "data": [
  ["Cc1c(NC(=O)NCC(C)N2CCOCC2)cccc1OC(F)F (stereo not drawn)", "Percent Effect", 14.8],
  ["NC(=O)C(CNC(=O)Cc1ccc(F)cc1)Cc1ccc(F)cc1 (stereo not drawn)", "Percent Effect", 0],
  ["CCOc1ncccc1C(=O)N(C)Cc1ncc(C)c(OC)c1C", "Percent Effect", 5.71],
  ["O=C(CCNC(=O)c1ccccc1)Nc1ccncc1", "Percent Effect", 2.13],
  ["O=S(=O)(NCc1ccccc1Cn1cncn1)C1CCCC1", "Percent Effect", 8.33],
  ["CN1CC2(COCCN(C(=O)c3ccco3)C2)OCC1=O (stereo not drawn)", "Percent Effect", -3.12],
  ["Cc1cnc(CN(C)C2CCN(CCc3ccccn3)CC2)cn1", "Percent Effect", 7.92],
  ["Cc1scc(C(=O)N2CCC3(CCCN(C)C3=O)C2)c1-c1ccccc1 (stereo not drawn)", "Percent Effect", -2.65],
  ["CC(C)n1ccnc1CN1CCCN(C(=O)CC2C=CCC2)CC1 (stereo not drawn)", "Percent Effect", -2.08],
  ["Cc1ccc(NC2CCN(C(=O)Cc3cccc(F)c3)CC2)nn1", "Percent Effect", 9.36]
]}

Documented Percent Effect of O=C(CCn1ccccc1=O)Nc1ccc(F)c(Cl)c1 : 4.3

Documented Percent Effect of Cc1nc(COCc2cnc3n2CCN(CC2CCC2)C3C)cs1 (stereo not drawn) : -1.04

Documented Percent Effect of CCOc1ccc(Cl)cc1C1CCCN1 (stereo not drawn) : 0

Documented Percent Effect of Cc1cnn(CC2CCCN2Cc2cc(=O)n3cccc(C)c3n2)c1 (stereo not drawn) : 14

Documented Percent Effect of CC(C)NC(=O)[C@@H]1C[C@H](N)CN1C(=O)c1cc2c([nH]c1=O)CCCC2 : 4.21

Documented Percent Effect of CNC(=O)C(C)(C)NC(=O)c1cc(OCC2CCC2)cc(C(=O)OC)c1 : 6.45

Documented Percent Effect of O=C(c1ccncc1F)N1CCN(CC2CC2)c2ncccc2C1 : -6.35

----------
Each entry below carries its reported Percent Effect.
Target desc: Chromo domain-containing protein 1 (Saccharomyces cerevisiae (strain ATCC 204508 / S288c) (Baker's yeast)) (UniProt P32657)
Sequence (P32657 whole entry, the tested form may be a part): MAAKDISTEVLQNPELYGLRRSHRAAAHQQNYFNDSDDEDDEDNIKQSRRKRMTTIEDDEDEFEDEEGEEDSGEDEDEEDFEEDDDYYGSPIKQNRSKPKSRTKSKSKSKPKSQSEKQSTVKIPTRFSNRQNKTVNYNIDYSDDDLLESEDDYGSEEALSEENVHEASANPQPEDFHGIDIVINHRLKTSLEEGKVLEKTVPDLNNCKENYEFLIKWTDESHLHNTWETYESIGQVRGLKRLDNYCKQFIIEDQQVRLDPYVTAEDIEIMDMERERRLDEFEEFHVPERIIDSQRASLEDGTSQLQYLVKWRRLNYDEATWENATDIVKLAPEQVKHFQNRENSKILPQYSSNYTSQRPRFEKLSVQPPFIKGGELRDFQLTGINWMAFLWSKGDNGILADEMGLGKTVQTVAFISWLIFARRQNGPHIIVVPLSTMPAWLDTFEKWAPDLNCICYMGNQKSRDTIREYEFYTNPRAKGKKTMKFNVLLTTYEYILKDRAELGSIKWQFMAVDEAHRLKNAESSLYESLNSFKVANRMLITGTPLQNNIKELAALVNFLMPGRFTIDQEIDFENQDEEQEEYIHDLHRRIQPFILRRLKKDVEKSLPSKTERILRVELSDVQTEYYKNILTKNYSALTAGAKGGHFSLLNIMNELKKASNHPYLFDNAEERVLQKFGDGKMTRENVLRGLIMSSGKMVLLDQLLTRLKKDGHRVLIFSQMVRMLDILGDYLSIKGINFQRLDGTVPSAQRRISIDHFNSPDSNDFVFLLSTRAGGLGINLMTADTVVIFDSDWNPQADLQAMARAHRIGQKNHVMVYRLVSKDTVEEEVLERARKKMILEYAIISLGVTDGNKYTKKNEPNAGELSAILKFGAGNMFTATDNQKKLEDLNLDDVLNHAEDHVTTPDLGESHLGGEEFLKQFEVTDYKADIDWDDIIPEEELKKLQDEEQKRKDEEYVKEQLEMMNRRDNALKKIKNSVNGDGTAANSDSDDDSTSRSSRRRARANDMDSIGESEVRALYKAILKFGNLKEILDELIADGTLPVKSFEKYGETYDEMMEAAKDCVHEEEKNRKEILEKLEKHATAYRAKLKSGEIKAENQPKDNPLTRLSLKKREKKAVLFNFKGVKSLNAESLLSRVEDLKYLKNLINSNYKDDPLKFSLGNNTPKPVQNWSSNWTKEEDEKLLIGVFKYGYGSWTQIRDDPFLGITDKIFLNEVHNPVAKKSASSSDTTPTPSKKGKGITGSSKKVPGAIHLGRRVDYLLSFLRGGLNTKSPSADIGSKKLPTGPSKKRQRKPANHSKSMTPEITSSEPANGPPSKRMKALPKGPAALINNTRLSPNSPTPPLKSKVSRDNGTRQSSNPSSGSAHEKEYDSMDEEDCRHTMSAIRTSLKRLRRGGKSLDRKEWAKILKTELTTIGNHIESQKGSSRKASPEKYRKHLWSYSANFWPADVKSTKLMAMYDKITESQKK
Procedure text: ScCHD-1 Enzyme Inhibition Assay; note: in the data most compounds retested in dose-response had high values
Assay type: functional
Set-up: scale not given: direction of the effect not stated beside the values
Test conditions: 30 µM
Answer with a number only, understood to be in %.

{"columns": ["Molecule", "Observed"],
 "data": [
  ["COc1ccc(C)cc1CNCc1ccc(-n2nc(C)cc2C)nc1", -9.32],
  ["CN1CCOC(CN(C(=O)Cc2ccccc2F)c2nccs2)C1 (configuration not stated)", 5.97],
  ["CN(C)C(=O)COC[C@]12COC[C@H]1CN(CC1CCC1)C2", -9.34],
  ["Cc1csc(CNC(=O)NC2CCN(c3ncccn3)CC2)n1", -3.12],
  ["O=C(NCc1ccccc1)c1nnc2ccc(N3CCOCC3)cc2n1", -13.2]
]}

Documented Percent Effect of CC(CNC(=O)Nc1ccc(N(C)C)nc1)Cn1cccn1 (configuration not stated) : -3.32

Documented Percent Effect of CN(Cc1ccccn1)C1CC2(CCN(Cc3cccnc3)CC2)C1 : -7.41
